target: Adrenergic β2 (Homo sapiens); construct: Adherent H292 cells were removed from tissue culture flasks; endogenous in cells; host or cells: H292 cells; experiment: Adrenergic β2 mediated cAMP production in H292 cells (AlphaScreen cAMP detection); type: cell-based; set-up: key: fraction of formoterol maximum activity (formoterol = 1); details: Intrinsic Activity as a fraction relative to the maximum activity determined for formoterol
Sequence (P07550 whole entry): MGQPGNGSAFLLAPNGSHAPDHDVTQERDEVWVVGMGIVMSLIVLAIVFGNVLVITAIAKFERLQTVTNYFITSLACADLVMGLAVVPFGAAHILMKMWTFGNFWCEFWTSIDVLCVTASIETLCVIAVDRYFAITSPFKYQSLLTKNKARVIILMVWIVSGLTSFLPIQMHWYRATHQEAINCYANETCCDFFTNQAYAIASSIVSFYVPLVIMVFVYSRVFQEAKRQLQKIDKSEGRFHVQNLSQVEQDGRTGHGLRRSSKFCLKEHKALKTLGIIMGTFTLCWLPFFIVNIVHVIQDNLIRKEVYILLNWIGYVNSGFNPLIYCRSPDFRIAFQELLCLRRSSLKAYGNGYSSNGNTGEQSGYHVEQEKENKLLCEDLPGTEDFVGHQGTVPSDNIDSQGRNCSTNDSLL
assay-metric: β2 Int Act
Give bare numbers.

Record excerpt, results attached:
Reported β2 Int Act, molecule O=C1COc2c(CCNCCN(C(=O)CCNCCc3ccc(Cl)c(Cl)c3)C3CCCCCC3)ccc(O)c2N1 [Example 26, bis(trifluoroacetate)] : ____
0.74

Do the same for O=C1COc2c(CCNCCN(C(=O)CCNCCc3ccc(Cl)cc3Cl)C3CCCCC3)ccc(O)c2N1 [Example 31, bis(trifluoroacetate)] please
0.94

Another: O=C1COc2c(CCNCCN(C(=O)CCNCCc3ccc(Cl)cc3)C3CCCCCC3)ccc(O)c2N1 [Example 63, bis(trifluoroacetate)]
0.79

// next record CCCC[C@@H](C)N(CCNCCc1ccc(O)c2c1OCC(=O)N2)C(=O)CCNCCc1ccccc1 [Example 25, bis(trifluoroacetate)]
0.9

Same again, this time with O=C(CCNCCc1cc(F)ccc1F)N(CCNCCc1ccc(O)c2[nH]c(=O)ccc12)C1CCCCC1 [Example 17, bis(trifluoroacetate)]
0.93

Further, for O=C1COc2c(CCNCCN(C(=O)CCNCCc3cccc(Cl)c3Cl)C3CCCCC3)ccc(O)c2N1 [Example 29, bis(trifluoroacetate)] ?
0.91

# iterate: CCCC[C@@H](C)N(CCNCCc1ccc(O)c2c1OCC(=O)N2)C(=O)CCNCCc1cc(F)ccc1C [Example 57, bis(trifluoroacetate)]
0.91

# repeat for CCCC[C@@H](C)N(CCNCCc1ccc(O)c2c1OCC(=O)N2)C(=O)CCNCCc1cc(F)ccc1F [Example 54, bis(trifluoroacetate)]
0.96

Ok, now Cc1cc(CCNCCC(=O)N(CCNCCc2ccc(O)c3c2OCC(=O)N3)C2CCCCCC2)ccc1F [Example 62, bis(trifluoroacetate)]
0.86

Same question, CCCC[C@@H](C)N(CCNCCc1ccc(O)c2c1OCC(=O)N2)C(=O)CCNCCc1ccc(F)c(F)c1 [Example 52, bis(trifluoroacetate)] this time
0.95

Value sought for every listed molecule: β2 Int Act.
1. O=C(CCNCCc1ccc(Cl)cc1)N(CCNCCc1ccc(O)c2[nH]c(=O)ccc12)C1CCCCC1 [Example 14, bis(trifluoroacetate)]
2. CCCC[C@@H](C)N(CCNCCc1ccc(O)c2c1OCC(=O)N2)C(=O)CCNCCc1cc(C)ccc1F [Example 56, bis(trifluoroacetate)]
3. O=C1COc2c(CCNCCN(C(=O)CCNCCc3ccc(F)c(Cl)c3)C3CCCCC3)ccc(O)c2N1 [Example 37, bis(trifluoroacetate)]

1. 0.88
2. 0.91
3. 0.89

###

target: Adrenergic β2 (Homo sapiens); construct: Adherent H292 cells were removed from tissue culture flasks; endogenous in cells; host or cells: H292 cells; assay: Adrenergic β2 mediated cAMP production in H292 cells (AlphaScreen cAMP detection); format: cell-based; design: key: fraction of formoterol maximum activity (formoterol = 1); conditions: Intrinsic Activity as a fraction relative to the maximum activity determined for formoterol
Where a name gives a salt, the structure may show the parent alone.
assay-metric: β2 Int Act
Give bare numbers.

Observe how each entry below is paired with its result.
Checklist item: β2 Int Act tested on Adrenergic β2 (Homo sapiens), entry O=C(CCNCCc1ccc(F)cc1)N(CCNCCc1ccc(O)c2[nH]c(=O)ccc12)C1CCCCCC1 [Example 6, bis(trifluoroacetate)] , value?
0.65

Next: O=C(CCNCCc1cccc(F)c1)N(CCNCCc1ccc(O)c2[nH]c(=O)ccc12)C1CCCCC1 [Example 19]
0.87

Try this molecule next: O=C(CCNCCc1cccc(Cl)c1)N(CCNCCc1ccc(O)c2[nH]c(=O)ccc12)C1CCCCCC1 [Example 3, bis(trifluoroacetate)]
0.82

And for O=C1COc2c(CCNCCN(C(=O)CCNCCc3ccc(C(=O)O)cc3)C3CCCCC3)ccc(O)c2N1 [Example 43, bis(trifluoroacetate)] ?
0.97

And the next one, Cl.O=C(CCOCCc1cccc(F)c1)N(CCNCCc1ccc(O)c2[nH]c(=O)ccc12)C1CCCCC1 [Example 72] ?
0.92

Here is the next molecule: C[C@H](C1CCCCC1)N(CCNCCc1ccc(O)c2c1OCC(=O)N2)C(=O)CCNCCc1ccccc1 [Example 61, bis(trifluoroacetate)]
0.84

Could you report β2 Int Act for every entry in the following list?
1. O=C1COc2c(CCNCCN(C(=O)CCNCCc3cccc(Cl)c3)C3CCCCC3)ccc(O)c2N1 [Example 27, bis(trifluoroacetate)]
2. O=C(CCNCCc1ccccc1)N(CCNCCc1ccc(O)c2[nH]c(=O)ccc12)C1CCCCCC1 [Example 7, bis(trifluoroacetate)]
3. CC[C@@H](C)N(CCNCCc1ccc(O)c2c1OCC(=O)N2)C(=O)CCNCCc1ccc(Cl)c(Cl)c1 [Example 58, dihydrochloride]
4. O=C1COc2c(CCNCCN(C(=O)CCNCCc3cc(F)cc(F)c3)C3CCCCC3)ccc(O)c2N1 [Example 35, bis(trifluoroacetate)]
5. O=C1COc2c(CCNCCN(C(=O)CCNCCc3ccc(Cl)c(Cl)c3)C3CCCCC3)ccc(O)c2N1 [Example 30, bis(trifluoroacetate)]
6. C[C@H](CNCCC(=O)N(CCNCCc1ccc(O)c2[nH]c(=O)ccc12)C1CCCCCC1)c1ccccc1 [Example 9, bis(trifluoroacetate)]

[0.89, 0.76, 0.91, 0.87, 0.92, 0.91]

Observed β2 Int Act on Adrenergic β2 (Homo sapiens) for O=C(CCNCCc1ccc(F)c(F)c1)N(CCNCCc1ccc(O)c2[nH]c(=O)ccc12)C1CCCCC1 [Example 16, bis(trifluoroacetate)] , please.
0.85
